Reported RENIN INHIBITION % values for a set of binders
SUBJECT_OF_TEST: T1, Purified human recombinant renin (human, UniProt P00797 67-406)
T1 sequence (looked up): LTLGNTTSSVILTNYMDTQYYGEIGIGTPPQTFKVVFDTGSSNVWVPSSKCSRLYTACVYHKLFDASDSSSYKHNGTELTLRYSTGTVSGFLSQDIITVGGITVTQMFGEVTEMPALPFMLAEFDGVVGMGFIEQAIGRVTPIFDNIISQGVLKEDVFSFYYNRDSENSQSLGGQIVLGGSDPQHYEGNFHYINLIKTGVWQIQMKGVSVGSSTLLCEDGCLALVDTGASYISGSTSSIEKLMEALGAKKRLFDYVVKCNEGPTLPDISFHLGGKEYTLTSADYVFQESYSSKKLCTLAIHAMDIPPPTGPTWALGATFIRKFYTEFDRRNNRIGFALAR
METHOD_SUMMARY: cell-based or functional assay
VALUE_TYPE: RENIN INHIBITION %

| BINDER | VALUE_TYPE | RESULT |
| --- | --- | --- |
| AHPVAIN [SEQ ID NO. 22] | RENIN INHIBITION % | 43.5% |
| RAAP [SEQ ID NO. 14] | RENIN INHIBITION % | 15.4% |
| RSPD [SEQ ID NO. 17] | RENIN INHIBITION % | 57.5% |
| ADMFPF [SEQ ID NO. 23] | RENIN INHIBITION % | 76.2% |
| YKKSVSSESDPF [SEQ ID NO. 26] | RENIN INHIBITION % | 32.4% |
| WLP [SEQ ID NO. 13] | RENIN INHIBITION % | 4.85% |
| TNPFPF [SEQ ID NO. 24] | RENIN INHIBITION % | 28% |
| NFLAGPSD [SEQ ID NO. 25] | RENIN INHIBITION % | 6.73% |
